- systemUnderTest: Human B2 receptors (Homo sapiens, UniProt P30411)
- Construct: expressed in transfected cells; membranes used
- Sequence (P30411 28-391): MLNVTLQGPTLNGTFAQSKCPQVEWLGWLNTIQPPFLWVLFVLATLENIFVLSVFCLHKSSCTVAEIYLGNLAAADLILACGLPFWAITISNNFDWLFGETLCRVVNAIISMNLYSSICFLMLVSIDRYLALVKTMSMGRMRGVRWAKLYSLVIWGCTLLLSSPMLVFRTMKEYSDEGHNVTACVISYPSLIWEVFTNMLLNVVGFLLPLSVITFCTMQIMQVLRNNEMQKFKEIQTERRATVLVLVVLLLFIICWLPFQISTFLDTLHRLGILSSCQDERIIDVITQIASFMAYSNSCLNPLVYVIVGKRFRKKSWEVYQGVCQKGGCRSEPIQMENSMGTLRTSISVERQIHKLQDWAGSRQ
- experimentSummary: Human B2 binding, cloned receptor in CHO cell membranes, 3H-bradykinin
- settings: CHO clone S34f membranes, 0.3 nM 3H-Bradykinin, room temperature 45 min; read-out: Human Receptor Clone B2 receptor binding (Ki) (converted)
Square brackets hold non-standard residues; d marks the D form. Peptide text beside a SMILES is read from it. * marks the point of attachment. Adamantane1carbonyl = O=C(C12CC3CC(CC(C3)C1)C2)*; Oic = O=C(O)[C@@H]1C[C@@H]2CCCC[C@@H]2N1; dIgl = N[C@@H](C(=O)O)C1Cc2ccccc2C1; Igl = N[C@H](C(=O)O)C1Cc2ccccc2C1; Hyp = O=C(O)[C@@H]1C[C@@H](O)CN1; NMeF = CN[C@@H](Cc1ccccc1)C(=O)O
Sorting guide: entries reporting Ki beneath 0.07 nM go in the t pile, the rest go in the f pile.

Please review the following examples before continuing.
compound	cat
N=C(N)NCCC[C@@H](N)C(=O)N[C@@H](CCCNC(=N)N)C(=O)N1CCC[C@H]1C(=O)N1C[C@H](O)C[C@H]1C(=O)NCC(=O)N[C@@H](Cc1cccs1)C(=O)N[C@@H](CO)C(=O)N(CC(=O)N1[C@H](C(=O)N[C@@H](CCCNC(=N)N)C(=O)O)C[C@@H]2CCCC[C@@H]21)C1Cc2ccccc2C1	f
N=C(N)NCCC[C@H](NC(=O)[C@@H]1C[C@@H]2CCCC[C@@H]2N1C(=O)[C@H](NC(=O)[C@H](COS(=O)(=O)O)NC(=O)[C@H](Cc1cccs1)NC(=O)CNC(=O)[C@@H]1C[C@@H](O)CN1C(=O)[C@@H]1CCCN1C(=O)[C@H](CCCNC(=N)N)NC(=O)[C@@H](CCCNC(=N)N)NC(=O)C12CC3CC(CC(C3)C1)C2)C1Cc2ccccc2C1)C(=O)O	f
N=C(N)NCCC[C@H](NC(=O)[C@@H]1C[C@@H]2CCCC[C@@H]2N1C(=O)[C@H](NC(=O)[C@H](CO)NC(=O)[C@H](Cc1ccccc1)NC(=O)CNC(=O)[C@@H]1C[C@@H](O)CN1C(=O)[C@@H]1CCCN1C(=O)[C@H](CCCNC(=N)N)NC(=O)[C@@H](CCCNC(=N)N)NC(=O)C12CC3CC(CC(C3)C1)C2)C1Cc2ccccc2C1)C(=O)O [Compound 53] (Adamantane1carbonyl-[dR]RP[Hyp]GFS[dIgl][Oic]R-OH)	t
N=C(N)NCCC[C@H](NC(=O)[C@@H]1C[C@@H]2CCCC[C@@H]2N1C(=O)[C@H](NC(=O)[C@H](CO)NC(=O)[C@H](Cc1cccs1)NC(=O)CNC(=O)[C@@H]1C[C@@H](O)CN1C(=O)[C@@H]1CCCN1C(=O)[C@H](CCCNC(=N)N)NC(=O)[C@@H](CCCNC(=N)N)NC(=O)CC12CC3CC(CC(C3)C1)C2)C1Cc2ccccc2C1)C(=O)O	f
N=C(N)NCCC[C@H](NC(=O)[C@@H]1C[C@@H]2CCCC[C@@H]2N1C(=O)[C@H](NC(=O)[C@H](CO)NC(=O)[C@@H](NC(=O)CNC(=O)[C@@H]1C[C@@H](O)CN1C(=O)[C@@H]1CCCN1C(=O)[C@H](CCCNC(=N)N)NC(=O)[C@@H](CCCNC(=N)N)NC(=O)C12CC3CC(CC(C3)C1)C2)C1Cc2ccccc2C1)C1Cc2ccccc2C1)C(=O)O	t

Exercise: For this compound, is Ki lower than 0.07 nM? Cc1ccc(C[C@@H](NC(=O)CNC(=O)[C@@H]2C[C@@H](O)CN2C(=O)[C@@H]2CCCN2C(=O)[C@H](CCCNC(=N)N)NC(=O)[C@H](N)CCCNC(=N)N)C(=O)N[C@@H](CO)C(=O)N[C@@H](C(=O)N2[C@H](C(=O)N[C@@H](CCCNC(=N)N)C(=O)O)C[C@@H]3CCCC[C@@H]32)C2Cc3ccccc3C2)c(C)c1
Solution: f

Exercise: Input CN(C(=O)[C@H](CCCNC(=N)N)NC(=O)[C@H](N)CCCNC(=N)N)[C@@H](Cc1ccccc1)C(=O)N1C[C@H](O)C[C@H]1C(=O)NCC(=O)N[C@H](C(=O)N[C@@H](CO)C(=O)N[C@@H](C(=O)N1[C@H](C(=O)N[C@@H](CCCNC(=N)N)C(=O)O)C[C@@H]2CCCC[C@@H]21)C1Cc2ccccc2C1)C1Cc2ccccc2C1 [Compound 45] (H-[dR]R[NMeF][Hyp]G[Igl]S[dIgl][Oic]R-OH) ; condition: Ki strictly below 0.07 nM. Does it hold?
Solution: f

Exercise: Determine if N=C(N)NCCC[C@@H](N)C(=O)N[C@@H](CCCNC(=N)N)C(=O)N1CCC[C@H]1C(=O)N1C[C@H](O)C[C@H]1C(=O)NCC(=O)N[C@@H](Cc1cccs1)C(=O)N[C@@H](CO)C(=O)N1Cc2ccccc2C[C@@H]1C(=O)N(CC(=O)N[C@@H](CCCNC(=N)N)C(=O)O)C1Cc2ccccc2C1 shows Ki strictly lower than 0.07 nM.
Solution: t
